# ASSAYED SYSTEM: LNX1_2, Q8TBB1
# Sequence (Q8TBB1 371-470): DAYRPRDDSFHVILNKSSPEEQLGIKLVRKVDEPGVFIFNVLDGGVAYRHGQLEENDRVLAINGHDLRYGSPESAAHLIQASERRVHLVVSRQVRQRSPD
# EXPERIMENTAL PROTOCOL: holdup assay
# Design: key: below the threshold = too weak to quantify, mostly under pKd 3.1 to 4
# CONDITION NOTES: plain residues with an end cap or a label only (N-terminal biotin on a linker: ado-ado)
RESULT TYPE: pKd

Consider the following illustrative entries.
>>> value_measured("REEPDHSTEV [CCRL2, O00421]")
3.65
>>> value_measured("RFQQRMQTHV [KIRREL1, Q96J84]")
"below the threshold"
>>> value_measured("PSHPRLQTHV [KIRREL2, Q6UWL6]")
"below the threshold"
>>> value_measured("DRIQSCLSDA [SBF1, O95248]")
"below the threshold"

Exercise: Would you kindly share the measured pKd for PPGKHLVTEV [KCNA7, Q96RP8] ?
Key: 3.53

Exercise: Now give it for NTLNRKTTPV [CACNG8, Q8WXS5] too.
Key: below the threshold

Exercise: Now give it for KRPEMTSSSV [MUC3A, MUC3B, Q02505;Q9H195] too.
Key: below the threshold
